# assayTarget: human Orexin type 2 receptors (Homo sapiens (Human))
# measurementDescription: Scintillation Proximity Assay (SPA) binding assay, [3H]EMPA displacement, HEK-hOX2 membranes
# conditions: Table 2, [3H]EMPA 2 nM
As shown below, each of these compounds has a reported OX2 pKi (SPA binding) value.

Use these answered entries as a reference point.
>  <compound>
Cc1ccc(-c2ccccn2)c(C(=O)N2C3CC(C3)[C@@H](C)C2COc2ccc(F)cn2)n1 (mixture of isomers)

>  <OX2 pKi (SPA binding)>
6.1

$$$$
>  <compound>
Cc1ccc(-n2nccn2)c(C(=O)N2C3CC(C3)[C@@H](C)C2CNc2cnc3ccccc3n2)n1 (single isomer, unassigned) [Example 160]

>  <OX2 pKi (SPA binding)>
5.98

$$$$
>  <compound>
C[C@@H]1C2CC(C2)N(C(=O)c2cc(C#N)ccc2-n2nccn2)C1CNc1nc2ccc(F)cc2s1 (stereo partly shown) [Example 175]

>  <OX2 pKi (SPA binding)>
6.02

$$$$

Okay, now this compound:
Give the measured OX2 pKi (SPA binding) of Cc1nc(C(=O)N2C3CC(C3)[C@@H](C)C2COc2ccc(F)cc2)c(-c2cnccn2)s1 (mixture of isomers) .
5.92

----------
# assayTarget: human Orexin type 2 receptors (Homo sapiens (Human), UniProt O43614)
# Sequence (O43614 whole entry): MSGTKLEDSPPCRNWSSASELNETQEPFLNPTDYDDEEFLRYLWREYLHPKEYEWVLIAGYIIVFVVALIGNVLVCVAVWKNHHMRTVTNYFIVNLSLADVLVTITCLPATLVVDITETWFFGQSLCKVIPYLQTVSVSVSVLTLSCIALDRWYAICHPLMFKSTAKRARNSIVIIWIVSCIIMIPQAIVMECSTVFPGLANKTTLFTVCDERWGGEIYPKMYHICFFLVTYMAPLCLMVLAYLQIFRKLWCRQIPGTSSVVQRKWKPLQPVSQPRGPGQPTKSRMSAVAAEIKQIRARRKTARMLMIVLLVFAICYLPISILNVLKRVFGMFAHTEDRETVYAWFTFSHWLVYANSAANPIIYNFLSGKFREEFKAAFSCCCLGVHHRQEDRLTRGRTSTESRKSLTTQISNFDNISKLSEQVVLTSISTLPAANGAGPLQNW
# measurementDescription: Scintillation Proximity Assay (SPA) binding assay, [3H]EMPA displacement, HEK-hOX2 membranes
# conditions: Table 2, [3H]EMPA 2 nM
quantityName: OX2 pKi (SPA binding)
Please give the numeric answer without any surrounding text.

Solved entries:
>  <compound>
Cc1ccc(-n2ncc(C)n2)c(C(=O)N2C3CC(C3)[C@H](C)C2COc2ccc(F)cc2)n1 (mixture of isomers)

>  <assayTarget>
human Orexin type 2 receptors (Homo sapiens (Human), UniProt O43614)

>  <OX2 pKi (SPA binding)>
6.1

$$$$
>  <compound>
C[C@@H]1C2CC(C2)N(C(=O)c2cc(Cl)ccc2-n2nccn2)C1CNc1ncc(C(F)(F)F)cn1 (some centres unmarked) [Example 239]

>  <assayTarget>
human Orexin type 2 receptors (Homo sapiens (Human), UniProt O43614)

>  <OX2 pKi (SPA binding)>
5.51

$$$$
>  <compound>
C[C@@H]1C2CC(C2)N(C(=O)c2cc(F)ccc2-n2nccn2)C1CNc1ccc(C(F)(F)F)cn1 (mixture of isomers) [Example 190]

>  <assayTarget>
human Orexin type 2 receptors (Homo sapiens (Human), UniProt O43614)

>  <OX2 pKi (SPA binding)>
4.98

$$$$

Observed OX2 pKi (SPA binding) on human Orexin type 2 receptors (Homo sapiens (Human), UniProt O43614) for Cc1ccc(-n2nccn2)c(C(=O)N2C3CC(C3)[C@@H](C)C2CNc2cncc(C(F)(F)F)n2)n1 (mixture of isomers) , please.
5.29

Param readout= OX2 pKi (SPA binding); system= human Orexin type 2 receptors (Homo sapiens (Human), UniProt O43614); entry= Cc1ccc(-n2nccn2)c(C(=O)N2C3CC(C3)[C@@H](C)C2CNc2nc3ccc(F)cc3o2)n1 (single isomer, unassigned) [Example 219] ; returns value.
5.79

----------
# assayTarget: human Orexin type 1 receptors (Homo sapiens (Human))
# Sequence (O43613 whole entry): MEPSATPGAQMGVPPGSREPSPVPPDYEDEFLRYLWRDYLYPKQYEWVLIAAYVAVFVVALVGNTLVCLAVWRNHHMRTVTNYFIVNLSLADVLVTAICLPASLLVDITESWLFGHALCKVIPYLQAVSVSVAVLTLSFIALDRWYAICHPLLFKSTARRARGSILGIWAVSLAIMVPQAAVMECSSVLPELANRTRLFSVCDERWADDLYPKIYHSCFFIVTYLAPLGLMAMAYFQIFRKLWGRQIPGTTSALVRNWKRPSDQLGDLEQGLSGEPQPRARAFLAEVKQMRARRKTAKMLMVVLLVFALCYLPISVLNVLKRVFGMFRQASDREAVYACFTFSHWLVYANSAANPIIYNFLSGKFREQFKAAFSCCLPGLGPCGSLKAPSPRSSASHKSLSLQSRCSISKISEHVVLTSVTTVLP
# measurementDescription: Scintillation Proximity Assay (SPA) binding assay, [3H]SB-674042 displacement, CHO-hOX1 membranes
# conditions: Table 2, [3H]SB-674042 2 nM
quantityName: OX1 pKi (SPA binding)

>  <compound>
C[C@@H]1C2CC(C2)N(C(=O)c2cc(F)ccc2-n2nccn2)C1CNc1nc2cccnc2s1 (single isomer, unassigned) [Example 230]

>  <OX1 pKi (SPA binding)>
8.46

$$$$
>  <compound>
C[C@@H]1C2CC(C2)N(C(=O)c2nn(C)cc2-c2ncccn2)C1CNc1ccc(C(F)(F)F)cn1 (mixture of isomers) [Example 213]

>  <OX1 pKi (SPA binding)>
7.91

$$$$
>  <compound>
Cc1ccc(-n2nccn2)c(C(=O)N2C3CC(C3)[C@@H](C)C2CNc2cnc(C(F)(F)F)cn2)c1 (some centres unmarked) [Example 254]

>  <OX1 pKi (SPA binding)>
8.37

$$$$
>  <compound>
C[C@@H]1C2CC(C2)N(C(=O)c2cc(C#N)ccc2-n2nccn2)C1COc1ccc(F)cc1 (mixture of isomers) [Example 142]

>  <OX1 pKi (SPA binding)>
7

$$$$

Looking for the measured OX1 pKi (SPA binding) of C[C@@H]1C2CC(C2)N(C(=O)c2cc(F)ccc2-n2nccn2)C1CNc1nc2ccc(F)cc2s1 (mixture of isomers) [Example 168] , can you help?
8.46
